Task for the reader: assign each of the following molecules its reported ΔTm.
measured_target: Mitogen-activated protein kinase 1 (Homo sapiens) (UniProt P28482)
Sequence (P28482 whole entry): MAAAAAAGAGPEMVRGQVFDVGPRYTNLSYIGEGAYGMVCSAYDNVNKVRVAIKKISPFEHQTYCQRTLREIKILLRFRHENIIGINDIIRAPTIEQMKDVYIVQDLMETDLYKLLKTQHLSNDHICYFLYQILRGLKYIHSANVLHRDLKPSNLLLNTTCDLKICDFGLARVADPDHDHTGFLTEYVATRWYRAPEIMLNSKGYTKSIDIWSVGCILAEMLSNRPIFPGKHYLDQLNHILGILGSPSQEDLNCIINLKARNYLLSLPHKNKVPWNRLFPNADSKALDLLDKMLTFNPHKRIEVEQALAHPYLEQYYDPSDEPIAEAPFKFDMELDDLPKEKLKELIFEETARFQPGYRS
condition_info: Compound concentration 20.0 uM
Description: Thermal Shift Assay. Domain: start/stop: M1-S360
Give the value in °C but do not write °C after it.

// returns reported ΔTm for input `C[C@H]1CO[C@@H]2Cn3cc(C(=O)NCc4ccc(F)cc4F)c(=O)c(O)c3C(=O)N12`
0.4

Please report the recorded ΔTm for COc1ccc(C2C(C#N)=C(N)OC3=C2C(=O)CC(c2cccc4ccccc24)C3)cc1 (stereo not drawn) .
0.85

Suppose we examine the molecule `COc1cc2c(NC3CCN(C)CC3)nc(N3CCCN(C)CC3)nc2cc1OCCCN(C)C` ; what ΔTm value has been reported?
0.4

Reported ΔTm, molecule `CC(=O)N[C@@H](Cc1ccc(O)cc1)C(=O)N[C@H](C(=O)N[C@@H](C)C(=O)N[C@@H](CC(=O)O)C(=O)CCl)C(C)C` : ____
-0.01

Which measured ΔTm value corresponds to `O=C(O)/C(S)=C/c1ccc(I)cc1` ?
-1.42

# get_value(readout='ΔTm', item= `CNC(=O)N1CCc2c(c(N3CCCc4cc(-c5cnn(C)c5)c(C(F)F)cc43)nn2C2CCOCC2)C1` )
-0.36

Quick one: ΔTm of `OC[C@H]1O[C@@H](c2ccc(Cl)c(Cc3ccc(O[C@H]4CCOC4)cc3)c2)[C@H](O)[C@@H](O)[C@@H]1O` ?
0.5

Reported ΔTm for `O=C(c1cc(Cc2n[nH]c(=O)c3ccccc23)ccc1F)N1CCN(C(=O)C2CC2)CC1` : what is it?
0.4
